system-under-test: Murine recombinant poly(ADP-ribose)-polymerase 2 (Mus musculus)
Sequence (O88554 whole entry): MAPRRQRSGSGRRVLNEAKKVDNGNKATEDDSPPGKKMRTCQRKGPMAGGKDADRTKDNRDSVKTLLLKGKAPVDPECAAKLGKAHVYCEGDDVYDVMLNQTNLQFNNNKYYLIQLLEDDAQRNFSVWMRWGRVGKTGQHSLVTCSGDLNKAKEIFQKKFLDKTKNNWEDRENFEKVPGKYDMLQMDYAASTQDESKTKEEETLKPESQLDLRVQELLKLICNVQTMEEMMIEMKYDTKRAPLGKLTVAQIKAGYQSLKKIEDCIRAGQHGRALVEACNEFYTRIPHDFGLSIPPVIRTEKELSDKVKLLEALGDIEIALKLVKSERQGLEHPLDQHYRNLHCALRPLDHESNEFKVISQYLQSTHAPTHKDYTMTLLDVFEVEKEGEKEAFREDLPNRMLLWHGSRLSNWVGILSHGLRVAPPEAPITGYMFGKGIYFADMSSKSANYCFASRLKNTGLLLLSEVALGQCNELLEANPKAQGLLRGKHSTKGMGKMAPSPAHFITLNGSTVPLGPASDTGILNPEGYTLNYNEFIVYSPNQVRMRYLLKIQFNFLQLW
measurement-notes: autopoly(ADP-ribosyl)ation of PARP-2, [32P]NAD+ incorporation
measurement-parameters: autopoly(ADP-ribosyl)ation, 0.6 mM NAD+
observed-property: pIC50
Quick note: pIC50 values are minus log10 of concentrations in mol/L.

Request: // returns reported pIC50 for input Nc1ncnc2c1ncn2C1OC(COP(=O)(O)OP(=O)(O)OCC2CNCC(n3cc(I)c(=O)[nH]c3=O)O2)C(O)C1O (centres unmarked)
Result: 3.80

Request: Similarly, O=c1[nH]c(=O)n([C@H]2CNC[C@@H](CO)O2)cc1Br ?
Result: 3.68

Request: Similarly, Cc1cn([C@@H]2O[C@H](CO)[C@@H](O)[C@H]2O)c(=O)[nH]c1=O [rThd, reference compound] ?
Result: 3.48

Request: Similarly, Nc1nc2c(ncn2C2CNCC(CNP(=O)(O)OP(=O)(O)OCC3OC(n4cnc5c(N)ncnc54)C(O)C3O)O2)c(=O)[nH]1 (centres unmarked) [Compound 10G] ?
Result: 3.65

Request: Similarly, Cc1cn(C2CNCC(COP(=O)(O)OP(=O)(O)OCC3OC(n4cnc5c(N)ncnc54)C(O)C3O)O2)c(=O)[nH]c1=O (centres unmarked) ?
Result: 3.32

Continuing:
Request: // returns reported pIC50 for input Nc1ncnc2c1ncn2C1OC(COP(=O)(O)OP(=O)(O)NCC2CNCC(n3cc(Br)c(=O)[nH]c3=O)O2)C(O)C1O (centres unmarked)
Result: 3.60

Request: Similarly, Cc1cn([C@H]2CNC[C@@H](CO)O2)c(=O)[nH]c1=O [Compound 11T] ?
Result: 3.94

Request: Similarly, Nc1ncnc2c1ncn2C1OC(COP(=O)(O)OP(=O)(O)NCC2CNCC(n3cc(I)c(=O)[nH]c3=O)O2)C(O)C1O (centres unmarked) [Compound 10IU] ?
Result: 3.96

Request: Similarly, Cc1cn(C2CNCC(CNP(=O)(O)OP(=O)(O)OCC3OC(n4cnc5c(N)ncnc54)C(O)C3O)O2)c(=O)[nH]c1=O (centres unmarked) [Compound 10T] ?
Result: 3.87

Request: Similarly, Nc1ncnc2c1ncn2C1CNCC(COP(=O)(O)OP(=O)(O)OCC2OC(n3cnc4c(N)ncnc43)C(O)C2O)O1 (centres unmarked) ?
Result: 3.38

Request: Similarly, Nc1ncnc2c1ncn2C1CNCC(CNP(=O)(O)OP(=O)(O)OCC2OC(n3cnc4c(N)ncnc43)C(O)C2O)O1 (centres unmarked) [Compound 10A] ?
Result: 4.20

Request: Similarly, O=c1[nH]c(=O)n([C@@H]2O[C@H](CO)[C@@H](O)[C@H]2O)cc1Br [Compound 5-Br-Urd, 5-Br-uridine, reference compound] ?
Result: 3.72

Request: Similarly, O=c1[nH]c(=O)n([C@H]2CNC[C@@H](CO)O2)cc1I [Compound 11IU] ?
Result: 4.07

Request: Similarly, O=c1[nH]c(=O)n([C@@H]2O[C@H](CO)[C@@H](O)[C@H]2O)cc1Cl [Compound 5-Cl-Urd, 5-Cl-uridine, reference compound] ?
Result: 3.71
